Target: human CGRP receptor (Homo sapiens, UniProt O60894+Q16602)
Construct: SK-N-MC membranes (˜20 μg protein) are incubated for 180 minutes at ambient temperature; endogenous in cells; host or cells: SK-N-MC cells (membranes)
Sequence (Q16602 23-461): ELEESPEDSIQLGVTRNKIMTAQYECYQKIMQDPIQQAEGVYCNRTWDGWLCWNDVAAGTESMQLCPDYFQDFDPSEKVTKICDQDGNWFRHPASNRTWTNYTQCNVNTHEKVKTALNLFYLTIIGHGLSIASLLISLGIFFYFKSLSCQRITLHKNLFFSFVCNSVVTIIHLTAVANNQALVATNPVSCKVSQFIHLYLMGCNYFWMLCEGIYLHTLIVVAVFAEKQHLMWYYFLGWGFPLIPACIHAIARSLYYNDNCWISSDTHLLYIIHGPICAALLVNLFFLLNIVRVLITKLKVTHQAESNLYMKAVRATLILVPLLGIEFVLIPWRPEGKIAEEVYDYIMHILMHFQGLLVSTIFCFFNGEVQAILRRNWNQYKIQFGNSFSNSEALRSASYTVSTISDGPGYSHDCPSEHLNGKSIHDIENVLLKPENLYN
Sequence (O60894 27-148): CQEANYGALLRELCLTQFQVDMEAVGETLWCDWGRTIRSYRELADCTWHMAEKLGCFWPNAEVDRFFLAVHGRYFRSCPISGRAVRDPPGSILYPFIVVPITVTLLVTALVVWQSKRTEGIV
Experiment: Binding studies with SK-N-MC cells (125I-CGRP displacement from membranes)
Conditions: 50 pM 125I-iodotyrosyl-CGRP, 180 min, ambient temperature
pKi: −log10 of the molar value.
Item-by-item account of pKi

| MOLECULE | pKi |
| --- | --- |
| COc1ccc2c(c1)CCN(C1CCN(c3cc(Oc4cc(C)c5[nH]c(=O)oc5c4)ncn3)CC1)C(=O)N2 [(1)] | 8.70 |
| COCCc1nc2c(C)cc(Oc3cc(N4CCC5(CC4)OC(=O)Nc4ncccc45)ncn3)cc2[nH]1 [(66)] | 8.22 |
| COc1nc(Oc2cc(C)c3[nH]c(=O)oc3c2)cc(N2CCC3(CC2)OC(=O)Nc2ncccc23)n1 [(41)] | 8.52 |
| COc1ccc2c(c1)CCN(C1CCN(c3cc(Oc4cc(C)c5nc(CC6CC6)[nH]c5c4)ncn3)CC1)C(=O)N2 [(33)] | 8.10 |
| COc1ccc2c(c1)CCN(C1CCN(c3cc(Oc4cc(C)c5[nH]c(=O)oc5c4)cc[n+]3[O-])CC1)C(=O)N2 [(80)] | 7.96 |
| Cc1cc(Oc2cc(N3CCC(n4c(=O)[nH]c5ncccc54)CC3)ncn2)cc2oc(=O)n(C)c12 [(2)] | 7.70 |
| COc1ccc2c(c1)CCN(C1CCN(c3cc(Oc4ccc(NC(C)=O)c(C)c4)ncn3)CC1)C(=O)N2 [(48)] | 7.02 |
| COc1ccc2c(c1)CCN(C1CCN(c3cc(Oc4cc(C)c5[nH]c(=O)oc5c4)nc(OC)n3)CC1)C(=O)N2 [(40)] | 8.10 |
| COc1ccc2c(c1)CCN(C1CCN(c3cc(Oc4cc(C(F)(F)F)c5nc(C)[nH]c5c4)ncn3)CC1)C(=O)N2 [(79)] | 7.96 |
| COc1ccc2c(c1)CCN(C1CCN(c3cc(Oc4cc(C)c5nc(C)[nH]c5c4)ncn3)CC1)C(=O)N2 [(29)] | 8.52 |
| Cc1cc(Oc2cc(N3CCC4(CC3)OC(=O)Nc3ncccc34)ncn2)cc2nc([C@H]3CCOC3)[nH]c12 [(60)] | 8.70 |
| COc1ccc2c(c1)CCN(C1CCN(c3cc(Nc4cc(C)c5[nH]c(=O)oc5c4)ncn3)CC1)C(=O)N2 [(7)] | 8.30 |
| COc1ccc2c(c1)CCN(C1CCN(c3cc(Oc4cc(C)c5nc(C6CCOC6)[nH]c5c4)ncn3)CC1)C(=O)N2 (stereo not shown) [(73)] | 8.52 |
| COc1ccc2c(c1)CCN(C1CCN(c3cc(Oc4cc(C)c5c(c4)OCC(=O)N5)ncn3)CC1)C(=O)N2 [(57)] | 7.46 |
| Cc1cc(Oc2cc(N3CCC4(CC3)OC(=O)Nc3ncccc34)ncn2)cc2cn[nH]c12 [(68)] | 8.40 |
| Cc1cc(Oc2cc(N3CCC4(CC3)OC(=O)Nc3ncccc34)ncn2)cc2nc(C3CCOC3)[nH]c12 (stereo not shown) [(58)] | 8.70 |
| COc1ccc2c(c1)CCN(C1CCN(c3cc(Oc4cc(C)nc(C)c4)ncn3)CC1)C(=O)N2 [(36)] | 7.21 |
| COc1ccc2c(c1)CCN(C1CCN(c3cc(Oc4cc(C)c5[nH]c(=O)oc5c4)nc(N)n3)CC1)C(=O)N2 [(37)] | 7.19 |
| Cc1cc(Oc2cc(N3CCC4(CC3)OC(=O)Nc3ncccc34)ncn2)cc2nc(C(F)(F)F)[nH]c12 [(63)] | 8.70 |
| COc1ccc2c(c1)CCN(C1CCN(c3cc(Oc4cc(C)c5[nH]c(=O)sc5c4)ncn3)CC1)C(=O)N2 [(72)] | 8.52 |
| COc1ccc2c(c1)CCN(C1CCN(c3cc(Oc4cc(C)c5nc[nH]c5c4)ncn3)CC1)C(=O)N2 [(32)] | 7.82 |
| Cc1ccc(Oc2cc(N3CCC(n4c(=O)[nH]c5ncccc54)CC3)ncn2)cc1C [(4)] | 6.76 |
| Cc1cc(Oc2cc(N3CCC(n4c(=O)[nH]c5ncccc54)CC3)ncn2)cc2[nH]c([C@@H]3CCCO3)nc12 [(52)] | 7.57 |
| Cc1cc(Oc2cc(N3CCC4(CC3)OC(=O)Nc3ncccc34)ncn2)cc2nc(C3CCOCC3)[nH]c12 [(65)] | 8.52 |
| COc1ccc2c(c1)CCN(C1CCN(c3cc(Nc4cc(C)c5oc(C)nc5c4)ncn3)CC1)C(=O)N2 [(16)] | 6.73 |
